Exercise: for every item that follows, state its recorded half-life at 23000 µM.
PROCEDURE DETAILS: Half life in human AB serum at 23 mM by RP-HPLC analysis
Format: ADME, cell-free
I only need the number, in min, no unit after it.

Request: Item under review: `CC[C@H](C)[C@@H]1C(=O)O[C@H]1C(=O)N[C@H]1C[C@H]1[C@@H](C)[C@@H](CCc1ccccc1)NC(=O)[C@H](C)N` . Reported half-life at 23000 µM?
Response: 4.2

Request: Item under review: CC[C@H](C)[C@@H]1C(=O)O[C@H]1C(=O)N[C@H]1C[C@H]1C[C@@H](CCc1ccccc1)NC(=O)[C@H](C)N (mixture of isomers) . Reported half-life at 23000 µM?
Response: 2.3

Request: Item under review: `CC[C@H](C)[C@@H]1C(=O)O[C@H]1C(=O)N[C@H]1C[C@H]1[C@H](C)[C@@H](CCc1ccccc1)NC(=O)[C@H](C)N` . Reported half-life at 23000 µM?
Response: 4.7
